- Test system: Vero E6 infected with SARS-CoV-2
- Experiment Summary: inhibition of SARS-CoV-2 cytopathic effect; higher = more antiviral protection, active = above 15
- Stated Conditions: 10000 nM; 48 h
Property: inhibition of SARS-CoV-2 cytopathic effect (%)

molecule=COc1ccccc1CC(=N)N1C[C@@H]2C(=O)CCC(c3ccccc3)(c3ccccc3)[C@@H]2C1 measurement=-2.17
molecule="c1ccc2sc(SNC3CCCCC3)nc2c1 [N-cyclohexyl-2-benzothiazolesulfenamide]" measurement=-3.64
molecule=CC[C@@]1(O)C(=O)OCc2c1cc1n(c2=O)Cc2cc3ccccc3nc2-1 measurement=-20.7
molecule=Cc1cccc(C)c1NC(=O)CN1CCCC1=O measurement=-6.8
molecule=Cc1cc(C)c2nc(-c3ccccn3)cc(C(=O)Nc3ccc(S(=O)(=O)Nc4onc(C)c4C)cc3)c2c1 measurement=-3.05
molecule=O=C1Cc2c([nH]c3ccc(Br)cc23)-c2ccccc2N1 measurement=12
molecule=Cc1nc2ccccn2c(=O)c1CCN1CCC(C(=O)c2ccc(F)cc2)CC1 measurement=0.69
molecule=OCc1ccccc1O measurement=0.29
molecule=Cc1cc(CN2CCN(c3c(Br)cnc4nc(-c5ccc(N6CCN(C)CC6)cc5)[nH]c34)CC2)no1 measurement=-6.41
molecule=CC1(C)S[C@@H]2[C@H](NC(=O)[C@H](NC(=O)N3CCN(S(C)(=O)=O)C3=O)c3ccccc3)C(=O)N2[C@H]1C(=O)O measurement=0.79
molecule=Oc1c(I)cc(Cl)c2cccnc12 measurement=-9.21
molecule=Cc1cccc(Nc2cc(Cl)nc(SCC(=O)O)n2)c1C measurement=2.81
molecule=CS(=O)(=O)Nc1c(O)ccc2c1CCC[C@H]2C1=NCCN1 measurement=-3.82
molecule="N=C(N)NCCC[C@@H](N)C(=O)N[C@@H](CCCNC(=N)N)C(=O)N1CCC[C@H]1C(=O)N1C[C@H](O)C[C@H]1C(=O)NCC(=O)N[C@@H](Cc1cccs1)C(=O)N[C@@H](CO)C(=O)N1Cc2ccccc2C[C@@H]1C(=O)N1[C@H](C(=O)N[C@@H](CCCNC(=N)N)C(=O)O)C[C@@H]2CCCC[C@@H]21 [icatibant-acetate]" measurement=1.26
molecule="CN(C)CCN1C(=O)c2cccc3cc(N)cc(c23)C1=O [amonafide]" measurement=-6.16
molecule="C=CCN1CCc2nc(N)sc2CC1 [talipexole]" measurement=-2.07
molecule="COC(=O)Nc1nc2cc([S+]([O-])c3ccccc3)ccc2[nH]1 (configuration not stated)" measurement=-1.5
